Readout label: melting point

>  <Compound>
CC(C)[C@@H](CN1CCN(c2cccc(O)c2)[C@@H](C)C1)NC(=O)c1ccc(Oc2cccc(Br)c2)cc1.Cl.Cl [Compound 19d]

>  <Value measured>
106 to 109 °C

$$$$
>  <Compound>
Cc1ccc(O)c(Oc2ccc(C(=O)N[C@H](CN3CCN(c4cccc(O)c4)[C@@H](C)C3)C(C)C)cc2Cl)c1.Cl.Cl [Compound 19p]

>  <Value measured>
145 to 148 °C

$$$$
>  <Compound>
Cc1cccc(Oc2ccc(C(=O)N[C@H](CN3CCN(c4cccc(O)c4)[C@@H](C)C3)C(C)C)cc2O)c1.Cl.Cl [Compound 19i]

>  <Value measured>
195 to 200 °C

$$$$
>  <Compound>
Cc1cccc(Oc2ccc(C(=O)N[C@H](CN3CCN(c4cccc(O)c4)[C@@H](C)C3)C(C)C)cc2C)c1.Cl.Cl [Compound 19g]

>  <Value measured>
124 to 130 °C

$$$$
>  <Compound>
COc1cc(C(=O)N[C@H](CN2CCN(c3cccc(O)c3)[C@@H](C)C2)C(C)C)ccc1Oc1ccccc1O.Cl.Cl [Compound 19m]

>  <Value measured>
95 to 97 °C

$$$$
